PARTICULARS: in water, 310.3 K
READOUT KIND: solubility (mole fraction)

cpd_smiles=NC(=O)c1c(F)c(F)c(F)c(F)c1F result_value=0.0006

----------
PARTICULARS: in water, 332 K
READOUT KIND: solubility (mole fraction)

cpd_smiles=O=c1[nH]c(=O)n([C@H]2C[C@H](O)[C@@H](CO)O2)cc1I result_value=0.00051

----------
PARTICULARS: in ethyl acetate, 321.4 K
READOUT KIND: solubility (mole fraction)

cpd_smiles=O=C(Nc1c(F)c(F)c(F)c(F)c1F)C(=O)Nc1c(F)c(F)c(F)c(F)c1F result_value=0.0206

----------
PARTICULARS: in 2-butanone, 303.3 K
READOUT KIND: solubility (mole fraction)

cpd_smiles=O=C(Nc1c(F)c(F)c(F)c(F)c1F)C(=O)Nc1c(F)c(F)c(F)c(F)c1F result_value=0.0126

----------
PARTICULARS: in ethyl acetate, 285.6 K
READOUT KIND: solubility (mole fraction)

cpd_smiles=O=C(Nc1c(F)c(F)c(F)c(F)c1F)C(=O)Nc1c(F)c(F)c(F)c(F)c1F result_value=0.00934

----------
PARTICULARS: in 2-butanone, 314.7 K
READOUT KIND: solubility (mole fraction)

cpd_smiles=O=C(Nc1c(F)c(F)c(F)c(F)c1F)C(=O)Nc1c(F)c(F)c(F)c(F)c1F result_value=0.0168

----------
PARTICULARS: in water, 348.6 K
READOUT KIND: solubility (mole fraction)

cpd_smiles=O=c1[nH]c(=O)n([C@H]2C[C@H](O)[C@@H](CO)O2)cc1I readout_kind="solubility (mole fraction)" result_value=0.00089

----------
PARTICULARS: in water, 302.2 K
READOUT KIND: solubility (mole fraction)

cpd_smiles=O=c1[nH]c(=O)n([C@H]2C[C@H](O)[C@@H](CO)O2)cc1I result_value=0.00013

----------
PARTICULARS: in 2-butanone, 331.1 K
READOUT KIND: solubility (mole fraction)

cpd_smiles=O=C(Nc1c(F)c(F)c(F)c(F)c1F)C(=O)Nc1c(F)c(F)c(F)c(F)c1F readout_kind="solubility (mole fraction)" result_value=0.025

----------
PARTICULARS: in water, 343.1 K
READOUT KIND: solubility (mole fraction)

cpd_smiles=O=c1[nH]c(=O)n([C@H]2C[C@H](O)[C@@H](CO)O2)cc1I readout_kind="solubility (mole fraction)" result_value=0.00076

----------
PARTICULARS: in water, 349.8 K
READOUT KIND: solubility (mole fraction)

cpd_smiles=O=c1[nH]c(=O)n([C@H]2C[C@H](O)[C@@H](CO)O2)cc1I result_value=0.00102

----------
PARTICULARS: in water, 323 K
READOUT KIND: solubility (mole fraction)

cpd_smiles=O=c1[nH]c(=O)n([C@H]2C[C@H](O)[C@@H](CO)O2)cc1I result_value=0.00027
